- TEST_DETAILS: Solubility / saturation concentration of TMT-Na salts and salt mixtures in water
- Type: physicochemical
- MEASUREMENT_CONTEXT: water, 20° C.; read-out: saturation concentration of TMT-Na3 in water
QUANTITY_KIND: solubility

What does the record list as solubility for Sc1nc(S)nc(S)n1.[Na].[Na].[Na] [TMT-Na3, trimercapto-s-triazine trisodium salt] ? ~250 mg/mL

###

- TEST_DETAILS: Solubility / saturation concentration of TMT-Na salts and salt mixtures in water
- Format: physicochemical
- MEASUREMENT_CONTEXT: water, 0° C.; read-out: saturation concentration of TMT-Na3 in water
QUANTITY_KIND: solubility

Name the reported solubility value associated with the compound Sc1nc(S)nc(S)n1.[Na].[Na].[Na] [TMT-Na3, trimercapto-s-triazine trisodium salt] ~160 mg/mL
